assay_info: self-splicing fitness, log relative to wild type (ln ratio); higher = more splicing; Tetrahymena group I intron in knt gene, E. coli kanamycin selection, DiMSum; sequences stand for … in CUCUCU…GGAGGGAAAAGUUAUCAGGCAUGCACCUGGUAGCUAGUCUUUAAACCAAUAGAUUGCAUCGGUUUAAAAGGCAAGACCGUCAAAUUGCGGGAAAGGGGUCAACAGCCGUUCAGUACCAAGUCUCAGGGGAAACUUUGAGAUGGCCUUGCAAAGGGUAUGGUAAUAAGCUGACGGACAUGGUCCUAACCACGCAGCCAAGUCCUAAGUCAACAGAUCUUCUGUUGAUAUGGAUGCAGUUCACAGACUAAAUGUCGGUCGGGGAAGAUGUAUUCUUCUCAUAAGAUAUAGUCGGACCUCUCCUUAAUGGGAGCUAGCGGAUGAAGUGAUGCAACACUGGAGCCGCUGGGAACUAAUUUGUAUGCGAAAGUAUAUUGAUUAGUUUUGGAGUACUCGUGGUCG;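 also: selection with 25 µg/mL kanamycin versus none on LB agar overnight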
test_parameters: 30 °C
value_type: self-splicing fitness (ln)
Field format: numeric only.

{"columns": ["residue_codes", "self-splicing fitness (ln)"],
 "data": [
  ["UGAGAGCAAUAUUACGAAGU", -3.04],
  ["CAUCAGCAAUAUUACGUCAC", -3.06]
]}

Shifting focus to the sequence that follows.
q: Which self-splicing fitness (ln) is listed for "CCUUAGCAAUAUUACGUACC" ?
a: -3.04

----------
assay_info: self-splicing fitness, log relative to wild type (ln ratio); higher = more splicing; Tetrahymena group I intron in knt gene, E. coli kanamycin selection, DiMSum; sequences stand for … in CUCUCU…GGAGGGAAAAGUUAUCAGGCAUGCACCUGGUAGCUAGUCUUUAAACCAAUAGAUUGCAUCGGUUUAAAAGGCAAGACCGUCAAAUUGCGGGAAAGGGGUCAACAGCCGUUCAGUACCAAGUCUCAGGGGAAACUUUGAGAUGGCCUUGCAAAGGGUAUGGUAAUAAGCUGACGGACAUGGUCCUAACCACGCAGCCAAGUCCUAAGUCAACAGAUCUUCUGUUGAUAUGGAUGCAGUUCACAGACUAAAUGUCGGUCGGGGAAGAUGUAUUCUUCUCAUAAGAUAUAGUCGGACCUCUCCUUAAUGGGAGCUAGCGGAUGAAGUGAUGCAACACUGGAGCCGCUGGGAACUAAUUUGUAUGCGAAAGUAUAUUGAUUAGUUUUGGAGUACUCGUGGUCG
test_parameters: 30 °C
value_type: self-splicing fitness (ln)
Answer with the value's number alone.

Examples from the recorded data:
{"columns": ["residue_codes", "value_type", "measured"],
 "data": [
  ["ACGAAGCAAUAUUACGUUGU", "self-splicing fitness (ln)", -2.95],
  ["GGGCAGCAAUAUUACGGGGA", "self-splicing fitness (ln)", -2.97]
]}

Please look at the following sequence next.
q: Reported self-splicing fitness (ln) for "UUCGAGCAAUAUUACGGGUC" : what is it?
a: -3.03

----------
# self-splicing fitness (ln) values compiled below
assay_info: self-splicing fitness, log relative to wild type (ln ratio); higher = more splicing; Tetrahymena group I intron in knt gene, E. coli kanamycin selection, DiMSum; sequences stand for … in CUCUCU…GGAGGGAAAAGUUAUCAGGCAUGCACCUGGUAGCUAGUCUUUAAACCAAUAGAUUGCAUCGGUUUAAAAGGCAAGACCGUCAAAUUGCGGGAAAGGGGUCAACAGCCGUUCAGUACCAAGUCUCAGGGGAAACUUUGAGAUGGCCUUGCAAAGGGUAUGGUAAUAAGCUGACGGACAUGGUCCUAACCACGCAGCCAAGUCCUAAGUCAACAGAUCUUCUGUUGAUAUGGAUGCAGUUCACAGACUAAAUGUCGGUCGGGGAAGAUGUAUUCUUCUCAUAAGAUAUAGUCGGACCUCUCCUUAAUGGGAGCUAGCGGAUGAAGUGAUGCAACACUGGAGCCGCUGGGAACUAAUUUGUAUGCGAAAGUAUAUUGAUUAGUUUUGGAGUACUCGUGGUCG
test_parameters: 30 °C

{"columns": ["residue_codes", "measured"],
 "data": [
  ["GCGUAGCAAUAUUACGUAAG", -3.03]
]}

q: Look up self-splicing fitness (ln): "UGGUAGCAAUAUUACGAUGC"
a: -3.09

q: Sample "AGUGAGCAAUAUUACGCUAC" — what was its self-splicing fitness (ln)?
a: -2.96

----------
Reported values of self-splicing fitness (ln) for individual entries
assay_info: self-splicing fitness, log relative to wild type (ln ratio); higher = more splicing; Tetrahymena group I intron in knt gene, E. coli kanamycin selection, DiMSum; sequences stand for … in CUCUCU…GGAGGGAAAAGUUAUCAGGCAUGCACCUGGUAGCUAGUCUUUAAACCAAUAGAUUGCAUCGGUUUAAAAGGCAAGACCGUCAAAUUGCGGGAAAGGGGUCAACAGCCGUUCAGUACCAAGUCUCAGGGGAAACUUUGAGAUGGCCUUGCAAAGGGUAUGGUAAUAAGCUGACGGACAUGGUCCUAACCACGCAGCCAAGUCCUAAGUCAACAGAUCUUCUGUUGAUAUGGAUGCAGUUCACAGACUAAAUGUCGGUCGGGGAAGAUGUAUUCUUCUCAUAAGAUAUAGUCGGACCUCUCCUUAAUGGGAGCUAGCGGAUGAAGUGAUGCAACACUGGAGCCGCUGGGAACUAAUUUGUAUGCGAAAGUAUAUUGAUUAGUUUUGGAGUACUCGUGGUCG
test_parameters: 30 °C
Field format: numeric only.

Past entries and their recorded results:
{"columns": ["residue_codes", "self-splicing fitness (ln)"],
 "data": [
  ["AGGAAGCAAUAUUACGAAAU", -3.06],
  ["GACAAGCAAUAUUACGGUGG", -2.01],
  ["UUGCAGCAAUAUUACGCCUG", -2.63]
]}

q: Returns the measured self-splicing fitness (ln) for the input sequence. Input: "ACAUAGCAAUAUUACGUAUC"
a: -3.37

q: Can you look up the measured self-splicing fitness (ln) of "GCACAGCAAUAUUACGGAGG" for me?
a: -2

q: Please give the measured self-splicing fitness (ln) for this sequence: "GGUUAGCAAUAUUACGGAUC"
a: -1.53

q: Item "CGGAAGCAAUAUUACGUGUG" has what recorded self-splicing fitness (ln)?
a: -1.38

q: Record request: self-splicing fitness (ln) value, item "UGUAAGCAAUAUUACGUAUU"
a: -2.86

q: Would you mind telling me what self-splicing fitness (ln) value was observed for "GCCGAGCAAUAUUACGCGUU" ?
a: -1.62

q: Fill in the blank: the reported self-splicing fitness (ln) of "CAAAAGCAAUAUUACGAGAC" is ____.
a: -3.62

q: For the sequence "GACUAGCAAUAUUACGCAUG" , what self-splicing fitness (ln) is on record?
a: -1.24

q: Quick one: self-splicing fitness (ln) for "CCUCAGCAAUAUUACGAAUU" ?
a: -2.53

q: Which self-splicing fitness (ln) is reported for this sequence? "GCCCAGCAAUAUUACGAAUA"
a: -1.62

q: Which measured self-splicing fitness (ln) value corresponds to "AGCAAGCAAUAUUACGUUAG" ?
a: -2.96

q: Query (sequence): "GUCAAGCAAUAUUACGAUAU" ; field requested: self-splicing fitness (ln)
a: -1.28

q: Any idea what self-splicing fitness (ln) was measured for "CGGUAGCAAUAUUACGUGCA" ?
a: -1.61

q: What value of measured self-splicing fitness (ln) is listed for "GGAAAGCAAUAUUACGAUAC" ?
a: 0.424

q: Record request: self-splicing fitness (ln) value, item "UGUAAGCAAUAUUACGAGAC"
a: -3.68

q: Recorded self-splicing fitness (ln) of "UCUUAGCAAUAUUACGUUGG" , please.
a: -2.76

----------
assay_info: self-splicing fitness, log relative to wild type (ln ratio); higher = more splicing; Tetrahymena group I intron in knt gene, E. coli kanamycin selection, DiMSum; sequences stand for … in CUCUCU…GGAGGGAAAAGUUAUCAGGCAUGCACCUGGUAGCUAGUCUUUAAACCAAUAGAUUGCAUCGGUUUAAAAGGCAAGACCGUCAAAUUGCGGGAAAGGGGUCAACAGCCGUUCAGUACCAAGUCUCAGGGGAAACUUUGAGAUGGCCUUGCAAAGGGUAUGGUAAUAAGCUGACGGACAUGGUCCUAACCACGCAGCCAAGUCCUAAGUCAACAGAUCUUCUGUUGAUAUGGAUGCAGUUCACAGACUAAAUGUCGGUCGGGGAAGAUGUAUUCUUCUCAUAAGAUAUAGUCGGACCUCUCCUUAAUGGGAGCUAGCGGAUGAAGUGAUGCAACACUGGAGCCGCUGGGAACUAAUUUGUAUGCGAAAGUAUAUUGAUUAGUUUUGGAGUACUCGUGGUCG
test_parameters: 37 °C
Label true when self-splicing fitness (ln) is at or above -2; anything below gets false.

{"columns": ["residue_codes", "assigned_label"],
 "data": [
  ["CCUCAGCAAUAUUACGUGCC", "false"],
  ["CUCCAGCAAUAUUACGCAAA", "false"],
  ["AGCUAGCAAUAUUACGGAGG", "true"],
  ["UUGAAGCAAUAUUACGCGCG", "true"],
  ["AGUGAGCAAUAUUACGGUGA", "false"],
  ["AGGUAGCAAUAUUACGAGCA", "true"],
  ["ACUGAGCAAUAUUACGGUAA", "false"],
  ["CCACAGCAAUAUUACGGGCG", "true"]
]}

We next turn to a different sequence, shown below.
q: Does the reported self-splicing fitness (ln) for "CCUGAGCAAUAUUACGUUUU" fall at or above the -2 mark?
a: false
